Molecular target: T1, soluble recombinant HLA-DR2 molecules (MHC class II HLA-DR2 protein) (human)
T1 chain 1: not shown
T1 chain 2: not shown
Assay: competition ELISA on soluble HLA-DR2; competitor biotinylated Cop 1 (1.5 µM)
Settings: remark: other sources report otherwise
Endpoint: IC50

In: Quick one: IC50 of AEKAYAAAAAAAAAA [synthetic peptide #43] ?
Out: > 1000 µM
